target: PDE-III (Cavia porcellus, UniProt H0VIU9)
Construct: different forms of cyclic nucleotide phosphodiesterase from guinea pig left ventricular muscles; from tissue; host or cells: guinea pig left ventricular muscle, DEAE-cellulose fraction
Sequence (H0VIU9 1-1132): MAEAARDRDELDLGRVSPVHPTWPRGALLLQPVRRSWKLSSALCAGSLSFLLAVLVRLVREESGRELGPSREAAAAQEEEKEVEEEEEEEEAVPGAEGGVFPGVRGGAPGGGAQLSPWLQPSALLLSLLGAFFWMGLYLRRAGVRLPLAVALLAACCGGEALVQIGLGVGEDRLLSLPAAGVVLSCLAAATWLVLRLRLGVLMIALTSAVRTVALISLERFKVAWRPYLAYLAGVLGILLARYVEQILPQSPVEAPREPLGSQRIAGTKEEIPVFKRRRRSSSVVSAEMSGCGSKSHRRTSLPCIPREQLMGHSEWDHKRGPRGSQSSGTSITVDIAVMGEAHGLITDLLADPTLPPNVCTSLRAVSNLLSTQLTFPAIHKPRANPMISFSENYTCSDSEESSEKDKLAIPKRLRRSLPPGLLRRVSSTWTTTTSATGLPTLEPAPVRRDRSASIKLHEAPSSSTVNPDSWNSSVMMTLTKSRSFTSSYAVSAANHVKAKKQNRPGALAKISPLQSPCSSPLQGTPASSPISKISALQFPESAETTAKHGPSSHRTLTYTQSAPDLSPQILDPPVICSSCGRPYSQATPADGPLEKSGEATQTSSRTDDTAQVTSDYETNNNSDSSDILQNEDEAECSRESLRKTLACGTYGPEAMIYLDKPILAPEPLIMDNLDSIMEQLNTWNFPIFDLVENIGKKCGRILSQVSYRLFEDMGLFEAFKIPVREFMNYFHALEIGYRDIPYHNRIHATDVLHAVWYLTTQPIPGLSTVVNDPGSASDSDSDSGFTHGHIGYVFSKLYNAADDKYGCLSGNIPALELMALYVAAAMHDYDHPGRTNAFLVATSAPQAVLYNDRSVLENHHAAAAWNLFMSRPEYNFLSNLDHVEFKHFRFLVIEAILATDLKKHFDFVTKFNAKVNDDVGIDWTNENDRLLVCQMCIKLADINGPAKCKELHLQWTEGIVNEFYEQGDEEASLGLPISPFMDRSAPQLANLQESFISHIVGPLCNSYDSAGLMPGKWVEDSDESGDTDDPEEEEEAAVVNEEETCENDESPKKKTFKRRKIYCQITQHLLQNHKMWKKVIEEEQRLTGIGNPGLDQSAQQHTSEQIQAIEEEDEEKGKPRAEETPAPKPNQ
measurement.notes: Inhibition of Phosphodiesterase PDE-III
Assay type: biochemical, guinea pig (left ventricular muscles)
settings: 1 mM 3H-cAMP substrate; read-out: phosphodiesterase inhibition IC50 PDE-III
experimental.readout: pIC50
Quick note: pIC50 values are minus log10 of concentrations in mol/L.

In: Name the recorded pIC50 for O=C1C=C(Nc2ccc(C3=NNC(=O)CC3)cc2)CCC1 .
Out: 6.33

In: Name the recorded pIC50 for O=C1C=C(Nc2ccc3c(c2)OCC2CC(=O)NN=C32)CC1 (stereo not shown) .
Out: 5.39

In: Name the recorded pIC50 for CC1=C(Nc2ccc(C3=NNC(=O)CC3C)cc2)CCC1=O (stereo not shown) .
Out: 6.23

In: Name the recorded pIC50 for CC1=C(Nc2ccc(C3=NNC(=O)CC3)cc2)CCC1=O .
Out: 5.70

In: Name the recorded pIC50 for O=C1CCC(c2ccc(-n3ccnc3)cc2)=NN1 [CI-914, reference compound] .
Out: 5.24

In: Name the recorded pIC50 for CC1(C)CC(=O)C=C(Nc2ccc(C3=NNC(=O)CC3)cc2)C1 .
Out: 5.92

In: Name the recorded pIC50 for O=C1C=C(Nc2ccc3c(c2)CCC2CC(=O)NN=C32)CC1 (stereo not shown) .
Out: 5.80

In: Name the recorded pIC50 for CC1CC(=O)NN=C1c1ccc(NC2=CC(=O)CC2)cc1 (stereo not shown) .
Out: 6.06

In: Name the recorded pIC50 for O=C1C=C(Nc2ccc(C3=NNC(=O)CC3)cc2)CC1 .
Out: 5.92

In: Name the recorded pIC50 for CC1=C(Nc2ccc3c(c2)OCC2CC(=O)NN=C32)CCC1=O (stereo not shown) .
Out: 5.64

====

Assignment: determine reported % Changes in Heart rate for the given compounds.
Tested on: Anesthetized Dogs
measurement.notes: Cardiotonic Action: Anesthetized Dogs
Type: in vivo, dog (adult mongrel)
settings: anesthetized dogs, i.v.
Only the number, expressed in %, is required.

In: Name the recorded % Changes in Heart rate for CC1=C(Nc2ccc(C3=NNC(=O)CC3)cc2)CCC1=O [Compound 4] .
Out: 5

In: Name the recorded % Changes in Heart rate for CC1=C(Nc2ccc3c(c2)OCC2CC(=O)NN=C32)CCC1=O (centres unmarked) [Compound 26] .
Out: 8

In: Name the recorded % Changes in Heart rate for CC1(C)CC(=O)C=C(Nc2ccc(C3=NNC(=O)CC3)cc2)C1 [Compound 1] .
Out: 5

In: Name the recorded % Changes in Heart rate for CC1=C(Nc2ccc(C3=NNC(=O)CC3C)cc2)CCC1=O (centres unmarked) [Compound 15] .
Out: 19

In: Name the recorded % Changes in Heart rate for O=C1CCC(c2ccc(-n3ccnc3)cc2)=NN1 [CI-914, reference compound] .
Out: 9

In: Name the recorded % Changes in Heart rate for CC1CC(=O)NN=C1c1ccc(NC2=CC(=O)CC2)cc1 (centres unmarked) [Compound 14] .
Out: 13

In: Name the recorded % Changes in Heart rate for O=C1C=C(Nc2ccc3c(c2)OCC2CC(=O)NN=C32)CC1 (centres unmarked) [Compound 24] .
Out: 4

In: Name the recorded % Changes in Heart rate for Cc1[nH]c(=O)c(C#N)cc1-c1ccncc1 [Milrinone, milrinone, reference compound] .
Out: 6

In: Name the recorded % Changes in Heart rate for O=C1C=C(Nc2ccc(C3=NNC(=O)CC3)cc2)CCC1 [Compound 3] .
Out: 2

In: Name the recorded % Changes in Heart rate for O=C1C=C(Nc2ccc3c(c2)CCC2CC(=O)NN=C32)CC1 (centres unmarked) [Compound 35] .
Out: 3

In: Name the recorded % Changes in Heart rate for O=C1C=C(Nc2ccc(C3=NNC(=O)CC3)cc2)CC1 [Compound 2] .
Out: 6

====

target: PDE-II (Cavia porcellus)
Sequence (A0A286XUV5 22-936): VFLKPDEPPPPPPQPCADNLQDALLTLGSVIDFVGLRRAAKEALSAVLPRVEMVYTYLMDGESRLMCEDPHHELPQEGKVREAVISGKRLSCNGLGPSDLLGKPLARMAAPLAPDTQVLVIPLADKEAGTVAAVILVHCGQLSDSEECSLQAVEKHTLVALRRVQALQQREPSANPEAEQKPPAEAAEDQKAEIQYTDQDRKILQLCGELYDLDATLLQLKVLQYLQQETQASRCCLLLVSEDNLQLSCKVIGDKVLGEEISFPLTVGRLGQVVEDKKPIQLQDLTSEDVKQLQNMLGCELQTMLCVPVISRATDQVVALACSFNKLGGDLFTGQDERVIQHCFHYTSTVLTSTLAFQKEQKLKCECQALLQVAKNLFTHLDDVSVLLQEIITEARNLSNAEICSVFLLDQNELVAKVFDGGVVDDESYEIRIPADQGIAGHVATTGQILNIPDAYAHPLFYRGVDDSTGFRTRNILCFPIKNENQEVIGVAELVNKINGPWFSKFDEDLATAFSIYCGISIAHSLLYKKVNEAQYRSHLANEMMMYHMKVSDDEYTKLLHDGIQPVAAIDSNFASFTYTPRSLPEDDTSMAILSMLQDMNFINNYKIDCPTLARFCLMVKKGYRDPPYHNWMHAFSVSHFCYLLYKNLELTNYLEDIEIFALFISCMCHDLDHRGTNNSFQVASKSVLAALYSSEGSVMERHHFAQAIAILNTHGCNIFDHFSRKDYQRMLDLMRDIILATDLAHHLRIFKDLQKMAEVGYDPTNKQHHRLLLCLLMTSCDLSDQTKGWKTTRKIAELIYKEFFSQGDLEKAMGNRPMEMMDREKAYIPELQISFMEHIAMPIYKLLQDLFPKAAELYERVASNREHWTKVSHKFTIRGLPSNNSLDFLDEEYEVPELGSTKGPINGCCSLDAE
Sorting guide: entries reporting IC50 beneath 200 µM go in the 1 pile, the rest go in the 0 pile.

In: Confirm or reject: IC50 of Cc1[nH]c(=O)c(C#N)cc1-c1ccncc1 [Milrinone, milrinone, reference compound] lies strictly below 200 µM
Out: 1

In: Confirm or reject: IC50 of CC1=C(Nc2ccc(C3=NNC(=O)CC3)cc2)CCC1=O [Compound 4] lies strictly below 200 µM
Out: 0

In: Confirm or reject: IC50 of O=C1C=C(Nc2ccc(C3=NNC(=O)CC3)cc2)CC1 [Compound 2] lies strictly below 200 µM
Out: 0

In: Confirm or reject: IC50 of CC1=C(Nc2ccc(C3=NNC(=O)CC3C)cc2)CCC1=O (stereo not shown) [Compound 15] lies strictly below 200 µM
Out: 0

In: Confirm or reject: IC50 of O=C1C=C(Nc2ccc(C3=NNC(=O)CC3)cc2)CCC1 [Compound 3] lies strictly below 200 µM
Out: 1

In: Confirm or reject: IC50 of CC1(C)CC(=O)C=C(Nc2ccc(C3=NNC(=O)CC3)cc2)C1 [Compound 1] lies strictly below 200 µM
Out: 0

In: Confirm or reject: IC50 of CC1=C(Nc2ccc3c(c2)OCC2CC(=O)NN=C32)CCC1=O (stereo not shown) [Compound 26] lies strictly below 200 µM
Out: 1

====

System: guinea pig left atria
measurement.notes: Cardiotonic Action: Electrically Stimulating Isolated Guinea Pig Left Atria
Set-up: species or system guinea pig (male Hartley)
settings: Cavia porcellus; concentration causing a 50% increase in contractility; cumulative addition, 30° C.; read-out: contractility of guinea pig left atria EC50
Assignment: determine reported EC50 for the given molecules.
Only the number, expressed in µg/mL, is required.

In: Name the recorded EC50 for CC1(C)CC(=O)C=C(Nc2ccc(C3=NNC(=O)CC3)cc2)C1 .
Out: 0.23

In: Name the recorded EC50 for O=C1C=C(Nc2ccc(C3=NNC(=O)CC3)cc2)CC1 .
Out: 0.11

In: Name the recorded EC50 for CC1=C(Nc2ccc(C3=NNC(=O)CC3)cc2)CCC1=O .
Out: 0.24

In: Name the recorded EC50 for O=C1CCC(c2ccc(-n3ccnc3)cc2)=NN1 [CI-914, reference compound] .
Out: 1.8

In: Name the recorded EC50 for CC1CC(=O)NN=C1c1ccc(NC2=CC(=O)CC2)cc1 (stereo not shown) .
Out: 0.12

In: Name the recorded EC50 for CC1=C(Nc2ccc(C3=NNC(=O)CC3C)cc2)CCC1=O (stereo not shown) .
Out: 0.054

In: Name the recorded EC50 for O=C1C=C(Nc2ccc(C3=NNC(=O)CC3)cc2)CCC1 .
Out: 0.23

====

Assignment: determine reported pIC50 for the given molecules.
target: PDE-I
measurement.notes: Inhibition of Phosphodiesterase PDE-I
Assay type: biochemical, guinea pig (left ventricular muscles)
settings: 1 mM 3H-cAMP substrate
Quick note: pIC50 values are minus log10 of concentrations in mol/L.

In: Name the recorded pIC50 for CC1CC(=O)NN=C1c1ccc(NC2=CC(=O)CC2)cc1 (centres unmarked) .
Out: 3.51

In: Name the recorded pIC50 for Cc1[nH]c(=O)c(C#N)cc1-c1ccncc1 [Milrinone, milrinone, reference compound] .
Out: 3.82

In: Name the recorded pIC50 for CC1(C)CC(=O)C=C(Nc2ccc(C3=NNC(=O)CC3)cc2)C1 .
Out: 3.05

In: Name the recorded pIC50 for O=C1C=C(Nc2ccc(C3=NNC(=O)CC3)cc2)CC1 .
Out: 3.00

In: Name the recorded pIC50 for O=C1C=C(Nc2ccc(C3=NNC(=O)CC3)cc2)CCC1 .
Out: 3.68

In: Name the recorded pIC50 for CC1=C(Nc2ccc(C3=NNC(=O)CC3)cc2)CCC1=O .
Out: 3.21

Numbers sourced from patent US5110925A.
